Taken from patent US20180208678A1.

- target.under.test: BgaD-D, smallest isozyme of the β-galactosidase from B. circulans ATCC 31382 (Biolacta) (Bacillus circulans ATCC 31382)
- assay.protocol: bead assay, purified proteins: biotinylated monobody on streptavidin-coated beads, BgaD-D titrated (0-1000 nM shown), flow cytometry, 1:1 fit [panel b]
property.label: Kd (nM)

# count of solved cases: 2
binder="Mb(BgaD_S10) (designed binder) VSSVPTKLEVVAATPTSLLISWDAPAVTVVFYLITYGETGASSWPGYQEFTVPGSKSTATISGLKPGVDYTITVYAQYPWDTGSPISINYRT" observed=13
binder="Mb(BgaD_L23) (designed binder) VSSVPTKLEVVAATPTSLLISWDAFDGYWYDYVSFYRITYGESGGNSPVQEFTVPSSSSTATISGLKPGVDYTITVYAYSHSQQQYLSPNSINYRT" observed=25

[P] Mb(BgaD_L02) (designed binder) VSSVPTKLEVVAATPTSLLISWDANGWNYVKYYRITYGETGGNSPVQEFTVPGSSSTATISGLKPGVDYTITVYAYEYYSESSSSPISINYRT
[Q] Mb(BgaD_S09) (designed binder) VSSVPTKLEVVAATPTSLLISWDAPAVTVVYYVITYGETGGNSPVQEFTVPGSKSTATISGLKPGVDYTITVYAYSDQVEYYEYFYGSPISINYRT
[R] Mb(BgaD_L19) (designed binder) VSSVPTKLEVVAATPTSLLISWDAFDGYWYDYVSYYRITYGETGGNSPVQEFTVPSSSSTATISGLKPGVDYTITVYAYSHSQQQYLSPISINYRT
Ask: Arrange the 3 entries by Kd so the values rise. List the labels according to the requested ordering.
Result: P, R, Q
